Entry source: the NIST ThermoML archive (doi:10.1016/j.fluid.2015.09.003)

Assay: activity coefficient (dimensionless); of the first substance listed, at infinite dilution; xn = mol fraction of the nth substance listed
Conditions: 353.1 K; 101 kPa; Liquid; Chromatography; x1 = 0
activity coefficient values, listed per item
Answer field: number only, no words.

Answered examples (4):
1) CCO [ethanol] + CCOS(=O)(=O)[O-].CC[n+]1cccc(C)c1
0.58
2) CCCO [propan-1-ol] + CCOS(=O)(=O)[O-].CC[n+]1cccc(C)c1
0.8
3) CCC(C)O (stereo not given) [butan-2-ol] + CCOS(=O)(=O)[O-].CC[n+]1cccc(C)c1
1.24
4) CCC(C)=O [butanone] + CCOS(=O)(=O)[O-].CC[n+]1cccc(C)c1
2.84

Attention now shifts to the item below.
Req: Field request: activity coefficient | item: CCCCO [butan-1-ol] + CCOS(=O)(=O)[O-].CC[n+]1cccc(C)c1
Resp: 1.13

----------
Experiment: activity coefficient (dimensionless); of the first substance listed, at infinite dilution; xn = mol fraction of the nth substance listed
Settings: 343.15 K; 101 kPa; Liquid; Chromatography; x1 = 0
measurement_label: activity coefficient
Answer field: number only, no words.

Answered examples (3):
1. CO [methanol] + CCOS(=O)(=O)[O-].CC[n+]1cccc(C)c1
0.33
2. CC(=O)CC(C)C [4-methylpentan-2-one] + CCOS(=O)(=O)[O-].CC[n+]1cccc(C)c1
6.99
3. CCCC(C)=O [pentan-2-one] + CCOS(=O)(=O)[O-].CC[n+]1cccc(C)c1
4.38

Attention now shifts to the item below.
Req: Field request: activity coefficient | item: CC(=O)C(C)C [3-methyl-2-butanone] + CCOS(=O)(=O)[O-].CC[n+]1cccc(C)c1
Resp: 4.62

----------
Experiment: activity coefficient (dimensionless); of the first substance listed, at infinite dilution; xn = mol fraction of the nth substance listed
Conditions: 363.06 K; 101 kPa; Liquid; Chromatography; x1 = 0
Rule: 1 for activity coefficient not less than 5, -1 for anything less.

Req: Quick check, activity coefficient >= 5? CCCCO [butan-1-ol] + CCOS(=O)(=O)[O-].CC[n+]1cccc(C)c1
Resp: -1

----------
activity coefficient values, listed per item
Assay: activity coefficient (dimensionless); of the first substance listed, at infinite dilution; xn = mol fraction of the nth substance listed
Details: 333.2 K; 101 kPa; Liquid; Chromatography; x1 = 0
Answer field: number only, no words.

1. CCC(C)=O [butanone] + CCOS(=O)(=O)[O-].CC[n+]1cccc(C)c1
2.74
2. CO [methanol] + CCOS(=O)(=O)[O-].CC[n+]1cccc(C)c1
0.33
3. CC(=O)CC(C)C [4-methylpentan-2-one] + CCOS(=O)(=O)[O-].CC[n+]1cccc(C)c1
6.97

Req: Field request: activity coefficient | item: CCCC(C)=O [pentan-2-one] + CCOS(=O)(=O)[O-].CC[n+]1cccc(C)c1
Resp: 4.35

Req: Also check CC(=O)C(C)C [3-methyl-2-butanone] + CCOS(=O)(=O)[O-].CC[n+]1cccc(C)c1
Resp: 4.51

----------
Assay: activity coefficient (dimensionless); of the first substance listed, at infinite dilution; xn = mol fraction of the nth substance listed
Conditions: 372.99 K; 101 kPa; Liquid; Chromatography; x1 = 0
measurement_label: activity coefficient
Answer field: number only, no words.

Answered examples (2):
1) CC(=O)C(C)C [3-methyl-2-butanone] + CCOS(=O)(=O)[O-].CC[n+]1cccc(C)c1
4.95
2) CCCC(C)=O [pentan-2-one] + CCOS(=O)(=O)[O-].CC[n+]1cccc(C)c1
4.52

Req: Field request: activity coefficient | item: CC(=O)CC(C)C [4-methylpentan-2-one] + CCOS(=O)(=O)[O-].CC[n+]1cccc(C)c1
Resp: 7.12

Req: Also check CC(C)=O [acetone] + CCOS(=O)(=O)[O-].CC[n+]1cccc(C)c1
Resp: 1.98

Req: Also check CCC(C)=O [butanone] + CCOS(=O)(=O)[O-].CC[n+]1cccc(C)c1
Resp: 2.95
